Biological target: Ba/F3-Syk cells (Homo sapiens, UniProt P43405)
Construct: fused on or other part: Possible but unprinted fusion partner: TEL (ETV6), the usual partner for Ba/F3 lines transformed by Syk; Nothing on a partner is printed
Test: Ba/F3 Proliferation Assay, Ba/F3-Syk cells (Resazurin)
Details: 48-hour incubation
pEC50: −log10 of the molar value.
READOUT LABEL: pEC50

Answered cases to consult:
CCn1ccc(-c2cc(OC[C@@H]3CNCCO3)c3nccnc3c2)c1 [Compound 8.22] = 7.90
Cn1cc(-c2cc3ncccc3c(OC[C@H]3CN[C@@H]4CCC[C@@H]4O3)n2)cn1 [Compound 2.72] = 6.58
FC(F)(F)c1[nH]ncc1-c1cc2ncccc2c(OC[C@@H]2CNCCO2)n1 [Compound 2.17] = 5.61
CC(C)n1cc(-c2cc3ncccc3c(OC[C@@]3(C)CNCCO3)n2)cn1 [Compound 10.8] = 7.09
Cn1cc(-c2cc(OC[C@@H]3CNCC4(CCC4)O3)c3cccnc3c2)cn1 [Compound 11.7] = 7.33
CC(C)(C)n1ccc(-c2cc3ncccc3c(OC[C@@H]3CNCCCO3)n2)c1 [Compound 2.69] = 7.87
Cn1cc(-c2cc3ncccc3c(OC[C@@H]3CN[C@H]4CCC[C@H]4O3)n2)cn1 [Compound 2.73] = 7.49
Cn1cc(-c2cc3ncccc3c(OC[C@@H]3CN[C@H]4CCC[C@H]4O3)n2)cn1 (racemic) [Compound 2.53] = 6.89
Cn1ccc(-c2cc3ncccc3c(OC[C@@H]3CNC(C)(C)CCO3)n2)c1 [Compound 2.79] = 6.22
Cn1ccc(-c2cc(OC[C@@H]3CNCCO3)c3cncnc3c2)c1 [Compound 4.3] = 6.23

I = C[C@@H]1CO[C@H](COc2nc(-c3cnn(C)c3)cc3ncccc23)CN1 (relative stereo) [Compound 2.27]
II = c1cnc2cc(-c3ccn(C4COC4)c3)cc(OC[C@@H]3CNCCO3)c2c1 [Compound 7.12]
Task item: Please tell me which of the two, I or II , has the higher reported pEC50 value. Choose, then provide that item's label.
Reply: II
(II: 7.63, I: 6.52)

---

Target: Ba/F3-Syk cells (Homo sapiens, UniProt P43405)
Construct: fused on or other part: Possible but unprinted fusion partner: TEL (ETV6), the usual partner for Ba/F3 lines transformed by Syk; Nothing on a partner is printed
Test: Ba/F3 Proliferation Assay, Ba/F3-Syk cells (Resazurin)
Conditions: 48-hour incubation
pEC50: −log10 of the molar value.
READOUT LABEL: pEC50

A = Cn1ccc(-c2cc(OC[C@@H]3CNCCO3)c3cccnc3c2)c1 [Compound 3.1]
B = CC(C)n1ccc(-c2cc3ncccc3c(OC[C@@H]3CNCCO3)n2)c1 [Compound 6.2]
Task item: Among A and B , whose measured pEC50 is the smaller figure? Choose, then provide that item's label.
Reply: A

---

Tested on: Ba/F3-WT (wild type) cells
Assay: Ba/F3 Proliferation Assay, Ba/F3-WT (wild type) cells with mIL-3 (Resazurin)
Type: cell-based
Settings: Mus musculus, BaF3, 48 h, Ba/F3-WT cells +mIL-3, 48-hour incubation
pEC50: −log10 of the molar value.
READOUT LABEL: pEC50

Answered cases to consult:
Cn1cc(-c2cc3ncccc3c(OC[C@@H]3CNCC4(CCC4)O3)n2)cn1 [Compound 2.55] = 5.49
CC1(C)CNC[C@@H](COc2cc(-c3cnn(C4CCC4)c3)cc3ncccc23)O1 [Compound 3.13] = 6.09
Cc1ccnc2cc(-c3cnn(C(C)(C)C)c3)nc(OC[C@@H]3CNCC(C)(C)O3)c12 (stereo in doubt) [Compound 14.6] = 5.57

P = Cc1ccc(-c2cc3ncccc3c(OC[C@@H]3CNCCO3)n2)s1 [Compound 2.19]
Q = FC(F)Cn1ccc(-c2cc(OC[C@@H]3CNCCO3)c3nccnc3c2)c1 [Compound 8.8]
Task item: Please tell me which of the two, P or Q , has the higher reported pEC50 value. Choose, then provide that item's label.
Reply: Q
(Q: 5.89, P: 5.56)
